pIC50: −log10 of the molar value.
Study the reported pIC50 values for glutaminase (GAC) (Homo sapiens) given below; they originate from different publications.
Recorded Metric: pIC50

> print(dat)
                                   compound        result
1  O=C(CNC(=O)c1ccccc1)Nc1nnc(CCCCc2nnc(NC(=O)CNC(=O)c3ccccc3)s2)s1  6.00 to 6.30
2  O=C(Cc1ccnc(N2CC(F)(F)C2)n1)Nc1nnc([C@H]2CCC[C@H](c3nnc(NC(=O)Cc4ccnc(N5CC(F)(F)C5)n4)s3)C2)s1        > 7.00
3  O=C(Cc1cnccn1)Nc1nnc([C@H]2CCC[C@H](c3nnc(NC(=O)Cc4cnccn4)s3)C2)s1 (relative stereo)        > 7.00
4  O=C(Cc1cccc(CO)c1)Nc1nnc([C@H]2CCC[C@H](c3nnc(NC(=O)Cc4cccc(CO)c4)s3)C2)s1        > 7.00
5  O=C(Cc1ccccn1)Nc1nnc(CCC(O)CCc2nnc(NC(=O)Cc3ccccn3)s2)s1  5.00 to 6.00
6  COc1cccc(CC(=O)Nc2nnc(C3CCC(c4nnc(NC(=O)Cc5cccc(OC)c5)s4)C3)s2)c1 (stereo not shown)  6.30 to 7.00
7  O=C(Cc1ccc(F)cc1)Nc1nnc([C@H]2CCC[C@H](c3nnc(NC(=O)Cc4ccc(F)cc4)s3)C2)s1  6.30 to 7.00

###

We begin with pIC50 values for UniProtKB O94925, as collected from the published literature.
pIC50: −log10 of the molar value.
Recorded Metric: pIC50

> print(dat)
                                    compound       system.name        result
 1  O=C(Cc1ccccc1)Nc1nnc(C2CCCC(c3nnc(NC(=O)Cc4ccccc4)s3)C2)s1 (centres unmarked)  UniProtKB O94925  5.70 to 6.00
 2  O=C(Cc1ccccn1)Nc1nnc(C[C@H]2C[C@@H]2Cc2nnc(NC(=O)Cc3ccccn3)s2)s1 (racemic)  UniProtKB O94925  6.00 to 6.30
 3  Cc1ccccc1CC(=O)Nc1nnc([C@H]2CCC[C@H](c3nnc(NC(=O)Cc4ccccc4C)s3)C2)s1  UniProtKB O94925  6.30 to 7.00
 4  COc1ccnc(CC(=O)Nc2nnc([C@@H]3CCC[C@@H](c4nnc(NC(=O)Cc5cc(OC)ccn5)s4)C3)s2)c1  UniProtKB O94925        > 7.00
 5  O=C(Cc1cccc(N2CC(F)(F)C2)n1)Nc1nnc([C@H]2CC[C@H](c3nnc(NC(=O)[C@H](O)c4ccccc4)s3)C2)s1  UniProtKB O94925        > 7.00
 6  O=C(Cc1cc(N2CC(F)C2)ccn1)Nc1nnc([C@H]2CCC[C@H](c3nnc(NC(=O)Cc4cc(N5CC(F)C5)ccn4)s3)C2)s1  UniProtKB O94925        > 7.00
 7  O=C(Cc1cccs1)Nc1nnc(C[C@H]2C[C@@H]2Cc2nnc(NC(=O)Cc3cccs3)s2)s1 (racemic)  UniProtKB O94925  6.30 to 7.00
 8  CC(C(=O)Nc1nnc(CCCCc2nnc(NC(=O)C(C)c3ccc(N4Cc5ccccc5C4=O)cc3)s2)s1)c1ccc(N2Cc3ccccc3C2=O)cc1 (centres unmarked)  UniProtKB O94925  6.30 to 7.00
 9  COc1ccccc1OCC(=O)Nc1nnc(CCCCc2nnc(NC(=O)COc3ccccc3OC)s2)s1  UniProtKB O94925  6.30 to 7.00
10  O=C(Cc1cccc2c1OCO2)Nc1nnc([C@H]2CCC[C@H](c3nnc(NC(=O)Cc4cccc5c4OCO5)s3)C2)s1  UniProtKB O94925        > 7.00
11  COc1ccc(CC(=O)Nc2nnc([C@H]3CCC[C@H](c4nnc(NC(=O)Cc5ccc(OC)nc5)s4)C3)s2)cn1  UniProtKB O94925        > 7.00
12  O=C(Cc1ccccn1)Nc1nnc([C@H]2CC[C@H](c3nnc(NC(=O)Cc4ccccn4)s3)C2)s1  UniProtKB O94925        > 7.00
13  O=C(Cc1ccccn1)Nc1nnc([C@@H]2CC[C@@H](c3nnc(NC(=O)Cc4ccccn4)s3)C2)s1  UniProtKB O94925        > 7.00
14  CSCCC(=O)Nc1nnc([C@H]2CCC[C@H](c3nnc(NC(=O)CCSC)s3)C2)s1  UniProtKB O94925  6.30 to 7.00
